Target: T1, exemplary TAT frataxin fusion molecule (HIV-1, UniProt Q16595 1-210)
T1 construct: in the bridging assays biotinylated and sulfotagged forms were used; also called TAT-FXN fusion molecule; TAT FXN fusion molecule
T1 sequence: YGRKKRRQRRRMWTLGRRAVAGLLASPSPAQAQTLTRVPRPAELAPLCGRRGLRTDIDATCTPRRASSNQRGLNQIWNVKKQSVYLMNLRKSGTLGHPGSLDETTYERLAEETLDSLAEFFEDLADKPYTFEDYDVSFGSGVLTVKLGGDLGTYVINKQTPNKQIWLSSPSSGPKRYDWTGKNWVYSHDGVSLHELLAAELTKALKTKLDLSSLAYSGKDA
Test: PK sandwich ELISA in human plasma, antibody as capture, HRP anti-frataxin mAb detection
Here, each record is paired with measured Mean OD at plasma conc. 12.8 ng/mL data.
Expressed in OD, but write only the number.

{"columns": ["binder", "Mean OD at plasma conc. 12.8 ng/mL / OD"],
 "data": [
  ["antibody 10-4 (antibody, V domains shown, Rabbit monoclonal) VH: QSLEESGGDLVKPGASLTLTCTASGFSFSSGYWICWVRQAPGKGLEWIACIYTGDGDTSYASWAKGRFTISKTSSTTVTLQMTSLTVADTAIYFCARDTSGTFYYNLWGPGTLVAVSS VL: DVVMTQTPSPVSAPVGGTVTINCQASQNIYSNLAWYQQKPGQPPKLLIYGASTLASGVSSRFKGSRSGTEFTLTISDLECADAATYYCQSYVYSSSTADTFGGGTKVVVE", 0.757],
  ["antibody 10-5 (antibody, V domains shown, Rabbit monoclonal) VH: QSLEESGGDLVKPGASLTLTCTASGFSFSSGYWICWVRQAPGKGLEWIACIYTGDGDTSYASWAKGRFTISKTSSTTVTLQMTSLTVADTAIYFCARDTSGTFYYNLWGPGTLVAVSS VL: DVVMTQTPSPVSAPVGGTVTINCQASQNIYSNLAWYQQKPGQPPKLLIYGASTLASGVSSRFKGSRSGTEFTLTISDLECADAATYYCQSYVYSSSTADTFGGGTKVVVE", 0.819],
  ["antibody 10-12 (antibody, V domains shown, Rabbit monoclonal) VH: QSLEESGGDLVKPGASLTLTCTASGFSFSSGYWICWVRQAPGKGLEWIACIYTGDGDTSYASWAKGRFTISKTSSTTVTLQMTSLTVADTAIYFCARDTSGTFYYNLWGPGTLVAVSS VL: ELVLTQTASSVSAAVGGTVTISCQSSESVYKTNYLSWFQKKPGQPPKLLIYDASTLASGVPSRFSGSGSGTQFTLTISDLECDDAATYYCAGGYSDDINAFGGGTEVVVK", 0.778],
  ["antibody 12-10 (antibody, V domains shown, Rabbit monoclonal) VH: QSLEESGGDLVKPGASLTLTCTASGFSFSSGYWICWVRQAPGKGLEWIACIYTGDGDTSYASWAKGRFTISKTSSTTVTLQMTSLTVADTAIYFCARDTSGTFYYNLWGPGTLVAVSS VL: AAVLTQTPSSVSAAVGGTVTISCQSSESVYKTNYLSWFQKKPGQPPKLLIYDASTLASGVPSRFSGSGSGTQFTLTISDLECDDAATYYCAGGYSDDINAFGGGTEVEIK", 0.818],
  ["antibody 12-8 (antibody, V domains shown, Rabbit monoclonal) VH: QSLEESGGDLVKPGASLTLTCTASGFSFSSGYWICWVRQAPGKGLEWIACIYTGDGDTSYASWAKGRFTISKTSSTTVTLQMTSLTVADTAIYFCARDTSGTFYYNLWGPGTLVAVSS VL: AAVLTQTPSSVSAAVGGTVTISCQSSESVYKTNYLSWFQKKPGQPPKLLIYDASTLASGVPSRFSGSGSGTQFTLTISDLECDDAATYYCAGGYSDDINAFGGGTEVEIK", 0.75],
  ["antibody 10-9 (antibody, V domains shown, Rabbit monoclonal) VH: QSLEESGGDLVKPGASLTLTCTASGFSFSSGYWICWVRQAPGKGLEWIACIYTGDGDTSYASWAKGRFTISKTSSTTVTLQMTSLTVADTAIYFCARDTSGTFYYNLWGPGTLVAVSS VL: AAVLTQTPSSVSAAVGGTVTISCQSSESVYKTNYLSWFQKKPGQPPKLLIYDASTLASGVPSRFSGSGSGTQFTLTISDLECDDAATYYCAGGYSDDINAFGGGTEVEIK", 0.781]
]}

The measured Mean OD at plasma conc. 12.8 ng/mL associated with antibody 12-3 (antibody, V domains shown, Rabbit monoclonal) VH: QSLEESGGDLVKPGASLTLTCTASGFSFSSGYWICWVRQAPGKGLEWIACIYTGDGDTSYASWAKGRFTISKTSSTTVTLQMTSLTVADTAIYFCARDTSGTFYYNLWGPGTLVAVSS VL: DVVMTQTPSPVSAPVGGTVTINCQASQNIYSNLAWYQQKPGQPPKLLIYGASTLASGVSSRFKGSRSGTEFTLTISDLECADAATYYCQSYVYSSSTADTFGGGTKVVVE reads 0.767

// sample antibody 12-1 (antibody, V domains shown, Rabbit monoclonal) VH: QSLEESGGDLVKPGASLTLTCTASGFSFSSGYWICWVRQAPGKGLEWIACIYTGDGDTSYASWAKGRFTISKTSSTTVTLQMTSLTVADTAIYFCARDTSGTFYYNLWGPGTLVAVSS VL: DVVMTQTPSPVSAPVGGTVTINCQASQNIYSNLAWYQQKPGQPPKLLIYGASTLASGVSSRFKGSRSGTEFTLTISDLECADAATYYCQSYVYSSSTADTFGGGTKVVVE , its Mean OD at plasma conc. 12.8 ng/mL was 0.795

Data provenance: patent US20230061973A1
